Assay notes: Cytotoxicity against MDCK cells assessed as decrease in cell viability after 48 hrs by MTT assay
Type: cell-based, Canis lupus familiaris
Test conditions: dog
This section presents molecules with their documented CC50 at 48 h values.

Consider the following illustrative entries.
COC(=O)C[C@H](NC(=O)[C@@H](NC(=O)CSc1nc(-c2ccccc2)cc(-c2ccc(C)cc2)c1C#N)C(C)C)C(=O)OC | > 250 µM
COC(=O)[C@@H](NC(=O)CSc1nc(-c2ccccc2)cc(-c2ccc(C)cc2)c1C#N)C(C)C | 210 µM

Form field CC50 at 48 h, entry COC(=O)[C@H](Cc1ccccc1)NC(=O)CSc1nc(-c2ccccc2)cc(-c2ccc(C)cc2)c1C#N : 240 µM

Documented CC50 at 48 h of Cc1ccc(-c2cc(-c3ccccc3)nc(SCC(=O)O)c2C#N)cc1 : > 250 µM

Data point: COC(=O)[C@H](CCCNC(=N)N)NC(=O)CSc1nc(-c2ccccc2)cc(-c2ccc(C)cc2)c1C#N ; CC50 at 48 h = > 250 µM

Item: Cc1ccc(-c2cc(-c3ccccc3)nc(SCC(=O)N[C@H](C(=O)N[C@@H](CC(=O)O)C(=O)O)C(C)C)c2C#N)cc1 | CC50 at 48 h: > 250 µM

CC50 at 48 h reading for CC[C@H](C)[C@H](NC(=O)CSc1nc(-c2ccccc2)cc(-c2ccc(C)cc2)c1C#N)C(=O)OC : > 250 µM

Value of CC50 at 48 h reported for the molecule Cc1ccc(-c2cc(-c3ccccc3)nc(SCC(N)=O)c2C#N)cc1 is > 250 µM

So for NC(=O)c1ncn([C@@H]2O[C@H](CO)[C@@H](O)[C@H]2O)n1 , the logged CC50 at 48 h turned out to be > 250 µM
